targetDesc: Wild-type EGFR (Homo sapiens)
Construct: Assays to measure cellular phosphorylation of endogenous p-EGFR in cell lysates; endogenous in cells
Sequence (P00533 25-1210): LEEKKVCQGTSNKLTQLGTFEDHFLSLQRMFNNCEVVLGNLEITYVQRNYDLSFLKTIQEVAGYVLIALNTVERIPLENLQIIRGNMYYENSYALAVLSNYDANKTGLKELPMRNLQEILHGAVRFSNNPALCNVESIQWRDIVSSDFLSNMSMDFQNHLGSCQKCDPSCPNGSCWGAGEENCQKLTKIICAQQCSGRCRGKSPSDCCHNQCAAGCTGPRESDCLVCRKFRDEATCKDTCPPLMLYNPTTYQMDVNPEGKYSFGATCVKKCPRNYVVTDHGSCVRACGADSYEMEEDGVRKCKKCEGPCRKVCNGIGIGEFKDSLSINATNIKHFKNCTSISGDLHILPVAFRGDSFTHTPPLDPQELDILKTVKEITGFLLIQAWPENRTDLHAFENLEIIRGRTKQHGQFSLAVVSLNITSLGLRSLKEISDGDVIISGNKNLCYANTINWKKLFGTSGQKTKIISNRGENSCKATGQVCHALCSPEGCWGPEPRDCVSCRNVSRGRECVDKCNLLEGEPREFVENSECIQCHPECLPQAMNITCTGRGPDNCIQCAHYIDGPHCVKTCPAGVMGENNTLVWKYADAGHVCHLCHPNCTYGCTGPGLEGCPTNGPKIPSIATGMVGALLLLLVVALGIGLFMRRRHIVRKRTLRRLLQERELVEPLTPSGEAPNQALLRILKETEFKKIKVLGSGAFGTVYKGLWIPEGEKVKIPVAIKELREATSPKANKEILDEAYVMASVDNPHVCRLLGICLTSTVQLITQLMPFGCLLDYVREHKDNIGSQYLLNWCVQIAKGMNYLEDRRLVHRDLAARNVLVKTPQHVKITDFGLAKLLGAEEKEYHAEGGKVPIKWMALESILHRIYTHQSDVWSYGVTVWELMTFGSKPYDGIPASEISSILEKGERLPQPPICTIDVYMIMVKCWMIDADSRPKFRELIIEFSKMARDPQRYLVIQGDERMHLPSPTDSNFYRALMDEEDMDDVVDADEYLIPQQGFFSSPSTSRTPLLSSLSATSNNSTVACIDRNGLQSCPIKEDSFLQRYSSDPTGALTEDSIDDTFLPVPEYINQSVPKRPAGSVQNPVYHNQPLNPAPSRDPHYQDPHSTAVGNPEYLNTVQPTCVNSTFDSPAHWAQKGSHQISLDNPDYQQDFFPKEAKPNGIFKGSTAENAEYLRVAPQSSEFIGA
experimentNotes: Wild-type EGFR cellular phosphorylation assay
experimentalContext: LoVo human colon cells; endogenous p-EGFR in cell lysates by ELISA; 2 h with compound, then stimulated 100 ng/ml for 10 minutes; read-out: Assay 3 (IC50)
Reported pIC50 values for a set of compounds
Conceptually, pIC50 converts a concentration in mol/L into minus its log10.

Examples with answers:
C=CC(=O)Nc1cc(Nc2nccc(-c3cnn4c3CCCC4)n2)c(OC)cc1N1CC[C@@H]2CN(C)C[C@@H]21; 5.87
C=CC(=O)Nc1cc(Nc2ncc(Cl)c(-c3c[nH]c4ccccc34)n2)c(OC)cc1C1=CCN(C)CC1; 7.38
C=CC(=O)Nc1cc(Nc2nccc(-c3cnn4c3CCCC4)n2)c(OC)cc1N1CC[C@@H](N(C)C)C1; 5.44

Okay, next one:
Identify measured pIC50 corresponding to C=CC(=O)Nc1cc(Nc2ncc(Cl)c(-c3c[nH]c4ccccc34)n2)c(OC)cc1N1CC[C@@H](N(C)C)C1
7.45

###

targetDesc: L858R/T790M EGFR (Homo sapiens, UniProt P00533, L858R/T790M)
Construct: Assays to measure cellular phosphorylation of endogenous p-EGFR in cell lysates; endogenous in cells
Sequence (P00533 25-1210 T790M/L858R): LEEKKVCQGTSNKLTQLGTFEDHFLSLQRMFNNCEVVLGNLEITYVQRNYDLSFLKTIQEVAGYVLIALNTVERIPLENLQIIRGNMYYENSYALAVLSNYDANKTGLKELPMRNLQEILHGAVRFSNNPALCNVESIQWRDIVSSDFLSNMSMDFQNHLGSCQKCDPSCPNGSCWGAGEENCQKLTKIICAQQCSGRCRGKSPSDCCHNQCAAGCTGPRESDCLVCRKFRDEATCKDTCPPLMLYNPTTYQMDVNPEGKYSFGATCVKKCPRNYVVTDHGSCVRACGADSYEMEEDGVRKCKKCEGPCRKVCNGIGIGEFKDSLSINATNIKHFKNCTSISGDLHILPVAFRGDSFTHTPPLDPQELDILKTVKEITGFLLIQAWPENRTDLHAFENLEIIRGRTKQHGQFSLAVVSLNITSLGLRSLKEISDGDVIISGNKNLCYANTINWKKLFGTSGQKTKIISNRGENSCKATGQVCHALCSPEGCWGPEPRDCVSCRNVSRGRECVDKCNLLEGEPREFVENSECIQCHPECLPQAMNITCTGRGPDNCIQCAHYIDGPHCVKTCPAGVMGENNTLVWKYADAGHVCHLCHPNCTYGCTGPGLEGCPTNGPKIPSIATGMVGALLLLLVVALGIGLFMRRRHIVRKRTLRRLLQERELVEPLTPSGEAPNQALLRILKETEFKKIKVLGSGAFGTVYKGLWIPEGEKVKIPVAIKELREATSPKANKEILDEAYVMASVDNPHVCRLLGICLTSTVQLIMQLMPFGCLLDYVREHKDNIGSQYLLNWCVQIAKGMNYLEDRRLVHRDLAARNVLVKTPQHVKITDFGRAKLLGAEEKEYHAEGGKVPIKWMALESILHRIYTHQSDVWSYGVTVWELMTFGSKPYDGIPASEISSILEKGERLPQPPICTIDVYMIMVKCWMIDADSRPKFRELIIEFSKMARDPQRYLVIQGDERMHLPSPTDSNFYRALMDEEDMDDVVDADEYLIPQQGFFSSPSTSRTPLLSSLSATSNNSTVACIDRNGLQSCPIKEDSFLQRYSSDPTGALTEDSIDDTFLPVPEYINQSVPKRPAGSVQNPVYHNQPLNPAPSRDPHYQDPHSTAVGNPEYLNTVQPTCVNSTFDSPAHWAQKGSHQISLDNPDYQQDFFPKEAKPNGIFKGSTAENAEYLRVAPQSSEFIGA
experimentNotes: L858R/T790M EGFR (double mutant) cellular phosphorylation assay
experimentalContext: NCI-H1975 human lung cells; endogenous p-EGFR in cell lysates by ELISA; 2 h with compound
pIC50: −log10 of the molar value.
Where pIC50 equals or exceeds 8, the correct label is class 1; where it does not, the label is class 0.

C=CC(=O)Nc1cc(Nc2nccc(-c3cnn4c3CCCC4)n2)c(OC)cc1C1=CCN(C)CC1; class 0

Answer whether pIC50 of C=CC(=O)Nc1cc(Nc2nccc(-c3cn(C)c4ccccc34)n2)c(OC)cc1N1CC2(CCCN2C)C1 is greater than or equal to 8.
class 0

Answer whether pIC50 of C=CC(=O)Nc1cc(Nc2ncc(Cl)c(-c3cnn4ccccc34)n2)c(OC)cc1C1=CCN(C)CC1 is greater than or equal to 8.
class 1

Answer whether pIC50 of C=CC(=O)Nc1cc(Nc2nccc(-c3cn(C)c4ccccc34)n2)c(OC)cc1N1CC[C@@H]2CN(C)C[C@@H]21 is greater than or equal to 8.
class 0

Answer whether pIC50 of C=CC(=O)Nc1cc(Nc2ncc(Cl)c(-c3cnn4ccccc34)n2)c(OC)cc1N(C)CCN(C)C is greater than or equal to 8.
class 1

Answer whether pIC50 of C=CC(=O)Nc1cc(Nc2ncc(C)c(-c3cn(C)c4ccccc34)n2)c(OC)cc1N1CC[C@@H](N(C)C)C1 is greater than or equal to 8.
class 1

Answer whether pIC50 of C=CC(=O)Nc1cc(Nc2ncc(C#N)c(-c3cn(C)c4ccccc34)n2)c(OC)cc1N(C)CCN(C)C is greater than or equal to 8.
class 1

###

targetDesc: Exon19 deletion EGFR (Homo sapiens, UniProt P00533, DEL746-750)
Construct: Assays to measure cellular phosphorylation of endogenous p-EGFR in cell lysates; endogenous in cells
Sequence (P00533 with tags, fused parts or gaps DEL746-750): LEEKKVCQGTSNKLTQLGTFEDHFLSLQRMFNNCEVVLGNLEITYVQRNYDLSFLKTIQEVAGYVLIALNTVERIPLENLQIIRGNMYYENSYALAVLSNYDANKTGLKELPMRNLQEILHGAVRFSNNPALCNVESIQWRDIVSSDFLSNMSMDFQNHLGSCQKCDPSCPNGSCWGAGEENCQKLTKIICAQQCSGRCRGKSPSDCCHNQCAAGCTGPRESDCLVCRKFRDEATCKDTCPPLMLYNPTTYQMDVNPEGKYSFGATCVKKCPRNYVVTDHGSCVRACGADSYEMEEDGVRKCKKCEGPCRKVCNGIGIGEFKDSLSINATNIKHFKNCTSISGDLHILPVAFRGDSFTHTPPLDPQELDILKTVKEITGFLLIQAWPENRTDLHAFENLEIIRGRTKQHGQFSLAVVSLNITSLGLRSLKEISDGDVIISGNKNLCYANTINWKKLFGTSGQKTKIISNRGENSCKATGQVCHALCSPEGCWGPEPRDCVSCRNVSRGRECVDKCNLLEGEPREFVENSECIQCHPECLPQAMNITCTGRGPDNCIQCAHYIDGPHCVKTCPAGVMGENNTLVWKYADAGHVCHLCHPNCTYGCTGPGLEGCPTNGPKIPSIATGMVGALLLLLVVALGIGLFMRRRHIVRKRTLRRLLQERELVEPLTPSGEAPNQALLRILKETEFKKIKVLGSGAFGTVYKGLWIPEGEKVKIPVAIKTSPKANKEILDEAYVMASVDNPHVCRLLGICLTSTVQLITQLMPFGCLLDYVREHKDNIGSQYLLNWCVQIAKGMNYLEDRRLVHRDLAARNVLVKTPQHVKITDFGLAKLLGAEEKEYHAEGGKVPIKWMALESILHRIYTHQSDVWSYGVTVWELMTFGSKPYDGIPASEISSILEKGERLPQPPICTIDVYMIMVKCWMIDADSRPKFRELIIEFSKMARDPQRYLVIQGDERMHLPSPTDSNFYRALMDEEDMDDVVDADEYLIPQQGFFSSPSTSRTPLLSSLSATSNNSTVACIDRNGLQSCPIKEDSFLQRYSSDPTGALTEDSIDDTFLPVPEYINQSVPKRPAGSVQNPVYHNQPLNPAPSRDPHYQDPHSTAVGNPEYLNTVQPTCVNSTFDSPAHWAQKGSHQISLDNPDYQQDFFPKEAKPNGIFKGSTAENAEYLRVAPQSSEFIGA
experimentNotes: Exon19 deletion EGFR (activating single mutant) cellular phosphorylation assay
experimentalContext: PC9 human lung cells (Exon 19 deletion EGFR); endogenous p-EGFR in cell lysates by ELISA; 2 h with compound; read-out: Assay 1 (IC50)
measuredMetric: pIC50
Conceptually, pIC50 converts a concentration in mol/L into minus its log10.

Examples with answers:
C=CC(=O)Nc1cc(Nc2ncc(Cl)c(-c3cn(C)c4ccccc34)n2)c(OC)cc1N1CC[C@@H](N(C)C)C1 [Example 21]; 8.53
C=CC(=O)Nc1cc(Nc2nccc(-c3cnn4c3CCCC4)n2)c(OC)cc1N(C)CCN(C)C [Example 42]; 8.28

Okay, next one:
Identify measured pIC50 corresponding to C=CC(=O)Nc1cc(Nc2ncc(Cl)c(-c3cnn4ccccc34)n2)c(OC)cc1N1CCN(C(=O)[C@H](C)N)CC1 [Example 11]
7.54
